Reference source for all entries: PubChem BioAssay (NCI)

tested on: RXF 393 renal; experiment: NCI-60 one-dose screen, 48 h (100 = growth as untreated, 0 = no growth, -100 = all killed); settings: 10 µM
Compounds without any hit were thinned out: in the full panel of roughly 83,000, 20% have a hit.
Listed here: items and their measured growth.
Readout label: growth (%)

Sample smiles	Measurement unit	Data value
CC(=O)[C@H]1CC[C@H]2[C@@H]3CCC4=CC(=O)C=C[C@]4(C)[C@H]3CC[C@]12C	%	125
O=C(/C(=C/c1ccccc1)CN1CCCCC1)c1ccccc1	%	-77.6
O=C1/C(=C\c2ccc(Cl)cc2)CN(C(=S)Nc2ccccc2)C/C1=C\c1ccc(Cl)cc1	%	-88.6
O=C1/C(=C/c2ccc(Cl)cc2)SC(=Nc2ccc(Cl)cc2)N1Cc1nc2ccccc2[nH]1	%	91.5
COc1ccc(-c2nnc(-c3c(-c4ccccc4)nc4ncccn34)o2)cc1OC	%	98.3

* * *

tested on: KM12 colon; test: NCI-60 one-dose screen, 48 h (100 = growth as untreated, 0 = no growth, -100 = all killed); details: 10 µM
Compounds without any hit were thinned out: in the full panel of roughly 83,000, 20% have a hit.

Compound	Target system	Measurement unit	growth
CC(=O)n1c(-c2ccc(Cl)c(Cl)c2)cn(-c2ccc(Cl)cc2)c1=O	KM12 colon	%	49.8
C=C(NC(=O)C(=C)NC(=O)c1csc(C2=NC3c4csc(n4)C4NC(=O)c5csc(n5)C(C(C)(O)C(C)O)NC(=O)C5CSC(=N5)/C(=C/C)NC(=O)C(C(C)O)NC(=O)c5csc(n5)C3(CC2)NC(=O)C(C)NC(=O)C(=C)NC(=O)C(=C)NC(=O)C(C(C)C)NC2C=Cc3c(C(C)O)cc(nc3C2O)C(=O)OC4C)n1)C(N)=O (stereo not drawn)	KM12 colon	%	-88.1
CCN(CC)CCN1CC(=O)Nc2cc(Cl)ccc21	KM12 colon	%	103
COc1ccc2c(c1)C(=O)c1c-2c(=O)n(CCCN(C)C)c2cc(OC)c(OC)cc12	KM12 colon	%	69.5
Cc1cccc2c1O/C(=C\c1ccc([N+](=O)[O-])o1)C2=O	KM12 colon	%	-34.2
CCCCCCCCCCCCCCCCN(C(C)c1ccccc1)S(=O)(=O)c1ccc(OC)c(N)c1 (stereo not drawn)	KM12 colon	%	100
c1ccc2c(-c3nc(N4CCOCC4)c4c5c(sc4n3)CCCCCC5)cccc2c1	KM12 colon	%	109
COC(=O)c1c(-c2ccccc2)csc1NC(=O)c1c(-c2ccccc2)noc1C	KM12 colon	%	27.9
COc1cc(/C=C\c2cc(OC)c(OC)c(OC)c2)cc(NS(=O)(=O)c2ccc(Cl)cc2)c1OC	KM12 colon	%	25.1
CCOCCOCCOCCOCCOCCOCCOCCOCCOCCO (tested in a mixture with another compound)	KM12 colon	%	-18.3
O=C(CCCCC(=O)Nc1ccc2c(c1)/C(=C/c1ccc[nH]1)C(=O)N2)NO	KM12 colon	%	78
O=C1c2ccc3c4c(ccc(c24)C(=O)N1CCNCc1ccccc1)C(=O)N(CCNCc1ccccc1)C3=O	KM12 colon	%	-43.3
CN(C)c1ccc(N=C2C=CC(=O)c3ccccc32)cc1	KM12 colon	%	54.8
O=C(Nc1cccc(-n2cc(-c3ccncc3)c(-c3ccc(O)c(Cl)c3)n2)c1)c1ccc(Cl)c(Cl)c1	KM12 colon	%	43.9
Cc1cc(Cl)nc(N(CCCNc2ccnc3cc(Cl)ccc23)Cc2cccs2)n1	KM12 colon	%	12.8
COc1cc(Nc2ccnc(NCCNc3ccnc4cc(Cl)ccc34)n2)cc(OC)c1	KM12 colon	%	55.3
O=C(CSSCC(=O)c1ccc(Cl)cc1)c1ccc(Cl)cc1	KM12 colon	%	44.8
O=C(Nc1ccncc1)C(=O)c1cn(S(=O)(=O)c2cc(Cl)cc(Cl)c2)c2ccccc12	KM12 colon	%	55.3

* * *

# Lookup of reported growth keyed by entry
test system: HCC-2998 colon; assay: NCI-60 one-dose screen, 48 h (100 = growth as untreated, 0 = no growth, -100 = all killed); conditions: 10 µM
About 83,000 compounds went through this panel and 20% of them were active in at least one assay; those are over-represented in the sample as a whole.
Readout label: growth (%)

Compound	Target system	Measurement unit	Data value
COc1ccc(N2C(=O)C3c4[nH]c5ccc(OCc6ccccc6)cc5c4C4CCC(C(C)C)CC4C3C2=O)cc1 (stereo unspecified)	HCC-2998 colon	%	116
Cc1ccc(NC(=O)NC2CCCCC2)cc1	HCC-2998 colon	%	111
CCN(CC)CCNC(=O)c1ccc(NC(C)=O)cc1	HCC-2998 colon	%	102
c1ccc(C(NC2CC3CCC2C3)c2ccccc2)cc1 (stereo unspecified)	HCC-2998 colon	%	102
CN(C)c1ccc(-c2cc(-c3cccc(NS(C)(=O)=O)c3)nc(N)c2C#N)cc1	HCC-2998 colon	%	-41.9
COc1cc(-c2cc(/C=C3\C(=O)Nc4cc(Cl)ccc43)[nH]n2)cc(OC)c1OC	HCC-2998 colon	%	70

* * *

test system: RXF 393 renal; assay: NCI-60 one-dose screen, 48 h (100 = growth as untreated, 0 = no growth, -100 = all killed); conditions: 10 µM
About 83,000 compounds went through this panel and 20% of them were active in at least one assay; those are over-represented in the sample as a whole.
The threshold is inclusive: growth of exactly 70% counts as label 1; values below receive label 0.

Sample smiles	Assigned category
CC(C)(C)c1cc(Br)cc(C(C)(C)C)c1O	label 1
CC(C)(C)c1ccc(N2CSC(=S)N(c3ccc(C(C)(C)C)cc3)C2)cc1	label 1
C[C@]12CC[C@@H]3c4ccc(O)cc4C[C@@H](O)[C@H]3[C@@H]1CC[C@@H]2O	label 1
Cc1nc2ccccc2c(N)c1-c1cc(C)c2c(C)nc3ccccc3c2n1	label 0
CCCCCCc1cc(N=Nc2ccc(S(=O)(=O)Nc3cc(C)nc(C)n3)cc2)c(O)cc1O	label 1
NC(=S)N=Nc1c(O)c2ccccc2c2ccccc12	label 1
COc1ccc2c(c1)nc(N)c1c3cccnc3cn21	label 0
O=C(Nc1cccc(-n2cc(-c3ccncc3)c(-c3ccc(O)c(Cl)c3)n2)c1)c1ccc(N2CCOCC2)c(C(F)(F)F)c1	label 0
COc1ccc(N=C2C(=Nc3ccc(OC)cc3)N(c3ccc(N(C)C)cc3)C(=S)N2c2ccc(OC)cc2)cc1	label 1

* * *

system: NCI-H23 lung; experiment: NCI-60 one-dose screen, 48 h (100 = growth as untreated, 0 = no growth, -100 = all killed); details: 10 µM
This is part of a sample that, as a whole, favours compounds with a hit. Of some 83,000 tested, about 20% had one in any assay.
Under this convention, 1 denotes growth strictly below 80% and -1 denotes growth at or above 80%.

Molecule	Assigned category
O=C1CC[C@@H]2CCCC[C@@H]2C1	-1
CC(=O)OCc1cc(-c2nc3ccccc3[nH]c2=O)nn1-c1ccc(Cl)cc1	-1
COc1ccc2nc3ccccc3c(NCCNCC(C)O)c2c1 (stereo not given)	1
COc1ccc(-c2nc(-c3nc4ccc(OC)cc4[nH]3)cc3c2[nH]c2ccccc23)cc1	1
Nc1ccc2cc(S(=O)(=O)O)cc(O)c2c1N=Nc1ccc(F)cc1	-1
O=C1/C(=C\c2ccc(F)cc2)CN(C(=O)c2ccccc2)C/C1=C\c1ccc(F)cc1	1
Nc1ncn([C@@H]2O[C@H](CO)[C@@H](O)[C@H]2O)c(=O)n1	1
Cn1c([N+](=O)[O-])cnc1/C=C1\Oc2ccc(Cl)cc2C1=O	1
CCOC1(OCC)OC(c2ccccc2)=C(C#N)C(/C=C\c2ccccc2)C1(OCC)OCC (stereo not given)	-1

* * *

tested on: MDA-MB-435 melanoma; test: NCI-60 one-dose screen, 48 h; conditions: 10 µM
Compounds without any hit were thinned out: in the full panel of roughly 83,000, 20% have a hit. Calls of active or inactive are those of the source. Rule for the calls: active = growth percent below 10; inactive = the rest.
Possible outcomes: 1.0 for active, 0.0 for inactive

Compound	Assigned category
COc1cc2nc(Nc3cccc(C(=O)O)c3)nc(N)c2cc1OC	0.0
O=C1CC[C@@H]2CCCC[C@@H]2C1	0.0
Nc1nc(Nc2ccccc2)n[nH]1	0.0
Oc1[nH]c2ccc(Cl)cc2c1/C=c1/ccc2c(c1)N=C(c1cc(F)cc(F)c1)N=2	1.0
OCC1OC(n2cnc3c(N/N=C\c4ccccn4)ncnc32)C(O)C1O (stereo unspecified)	0.0
C/C(=N\Nc1nc2ccccc2s1)c1ccncn1	0.0
CCCCCCCCCCCCCCCCCCOCC(COCCOCC[N+]1(CCCCCC(=O)[O-])CCCC1)Oc1ncccn1 (stereo unspecified)	0.0
COc1cc(C(=O)/C=C/c2cc(-c3cc(OC)c(OC)c(OC)c3)n[nH]2)cc(OC)c1OC	1.0
CCN(CC)CCC(=O)Nc1cccc2c1C(=O)c1c(c(O)c3ccccc3c1O)C2=O	0.0
O=C(Nc1ccncc1)C(=O)c1cn(S(=O)(=O)c2cccc3ccccc23)c2ccccc12	1.0
FC(F)(F)c1ccc(-c2cnc(-n3cc(COCCN4CCCCC4)nn3)nc2NC2CCCCCC2)cc1	1.0
CCN(CC)CCNc1ccc(CO)c2oc3cc(Cl)ccc3c(=O)c12	0.0
COc1ccc2c(c1)sc1nc(-c3ccccc3)c(-c3cccnc3)n12	0.0
COc1cc(-c2nnc(-c3c(-c4ccc(F)cc4)nc4ccccn34)o2)cc(OC)c1OC	0.0
COc1cc(-c2nc(Nc3nc4ccccc4s3)[nH]c(=O)c2C#N)cc(OC)c1O	0.0
CC1(C)OC2=C(CC1Br)C(=O)C(=O)c1ccccc12 (stereo unspecified)	1.0
Cc1ccc(Nc2nnc(-c3cc(-c4ccncc4)n(-c4ccccc4)n3)s2)cc1	0.0
CCCCC/C=C/C(=O)CCc1ccc(O)c(OC)c1	0.0
COc1cc(NC(=O)CCSc2nc3ccc(C)cc3c(=O)n2Cc2ccccc2)cc(OC)c1OC	0.0
COc1ccc(/C=C2/CN(CCC#N)C/C(=C\c3ccc(OC)cc3)C2=O)cc1	1.0
COc1ccc(Cl)cc1-n1nnc(-c2nc3ccccc3[nH]2)c1N	0.0
